The values you see were collected from PubChem BioAssay AID1159580.

# assay_summary: chemical genetic growth profiling, strain panel (AID 1159580);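 note: tested at 20 µM; growth read once vehicle control cultures reached saturation at 30 °C; lower values mean less growth of the strain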
# assay_setup: S. cerevisiae deletion strains, growth OD, locus YPL106C, strain sse1
Screen size: about 5,500 compounds; about 2,000 (36%) were called active. Another 18% or so got no clear call; they are omitted. Cut-off read from the data, not from the text of the source: active = normalized growth mostly below about 0.91 (no sharp cut-off); inconclusive = no clear call, values can overlap the other calls; inactive = mostly above about 0.92. The list shows a part of the results.
Just give me one of these, please: T = active, F = inactive

Q: Could you kindly confirm the outcome this assay logged for Cc1cc(=O)c2c(O)cc(O)c(C)c2o1 ?
Result: F

Q: Could you kindly confirm the outcome this assay logged for CCC1(c2ccccc2)C(=O)NCNC1=O ?
Result: F

Q: Could you kindly confirm the outcome this assay logged for CC(C)(CO)C(O)C(=O)NCCCO (configuration not stated) ?
Result: F

Q: Could you kindly confirm the outcome this assay logged for OCC(O)Cc1ccc2c(c1)OCO2 (configuration not stated) ?
Result: F

Q: Could you kindly confirm the outcome this assay logged for Cc1cccc(Nc2cc(Cl)nc(SCC(=O)O)n2)c1C ?
Result: F

Q: Could you kindly confirm the outcome this assay logged for c1ccc(CN(CC2=NCCN2)c2ccccc2)cc1 ?
Result: F

Q: Could you kindly confirm the outcome this assay logged for S=C=NCc1ccccc1 ?
Result: T

Q: Could you kindly confirm the outcome this assay logged for c1ccc(CC2=NCCN2)cc1 ?
Result: F

Q: Could you kindly confirm the outcome this assay logged for O=C(/C=C/C=C/c1ccc2c(c1)OCO2)N1CCCCC1 ?
Result: F

Q: Could you kindly confirm the outcome this assay logged for CC1(C)C2CC[C@]3(C)C(C(=O)C=C4[C@@H]5C[C@@](C)(C(=O)O)CC[C@]5(C)CC[C@]43C)[C@@]2(C)CC[C@@H]1OC(=O)CCC(=O)O (some centres not stated) ?
Result: F

Q: Could you kindly confirm the outcome this assay logged for CC1(C)C2CC[C@]3(C)C(C(=O)C=C4[C@H]5C[C@@](C)(C(=O)O)CC[C@]5(C)CC[C@]43C)[C@@]2(C)CC[C@@H]1O (some centres not stated) ?
Result: T

Q: Could you kindly confirm the outcome this assay logged for O=C(Cc1ccccc1)NO ?
Result: F

Q: Could you kindly confirm the outcome this assay logged for C1CCc2nnnn2CC1 ?
Result: F

Q: Could you kindly confirm the outcome this assay logged for CCC1(C)CC(=O)NC1=O (configuration not stated) ?
Result: F

Q: Could you kindly confirm the outcome this assay logged for Cc1cc(=O)c2c(O)c(C)c(O)cc2o1 ?
Result: F

Q: Could you kindly confirm the outcome this assay logged for CCOC(=O)c1ncn2c1CN(C)C(=O)c1cc(F)ccc1-2 ?
Result: F

Q: Could you kindly confirm the outcome this assay logged for CN=C(NC#N)NCCSCc1nc(N=C(N)N)cs1 ?
Result: F

Q: Could you kindly confirm the outcome this assay logged for C=CCc1ccc2c(c1)OCO2 ?
Result: F

Q: Could you kindly confirm the outcome this assay logged for CCC1(c2ccc(N)cc2)CCC(=O)NC1=O (configuration not stated) ?
Result: F

Q: Could you kindly confirm the outcome this assay logged for CCCCOc1ccc(CC(=O)NO)cc1 ?
Result: F

Q: Could you kindly confirm the outcome this assay logged for NC(N)=Nc1nc(CSCCC(N)=NS(N)(=O)=O)cs1 ?
Result: F

Q: Could you kindly confirm the outcome this assay logged for COc1ccc(C[C@H]2NC[C@H](O)[C@H]2OC(C)=O)cc1 ?
Result: F
